- PROTOCOL TEXT: Solubility in water
METRIC: solubility (µg/mL)
Response body: numeric value in µg/mL, unit text excluded.

O=C(Nc1cc(C(F)(F)F)cc(C(F)(F)F)c1)c1cc(Cl)ccc1OP(=O)(O)O 1000

Lab note: next compound to report on.
Input line: I would be grateful if you could share the reported solubility for O=C(Nc1cc(C(F)(F)F)cc(C(F)(F)F)c1)c1cc(Cl)ccc1O .
Output line: 3.8

###

- TARGET OR TEST SYSTEM: purified AQP4b (Homo sapiens, UniProt P55087)
- Sequence (P55087 23-323): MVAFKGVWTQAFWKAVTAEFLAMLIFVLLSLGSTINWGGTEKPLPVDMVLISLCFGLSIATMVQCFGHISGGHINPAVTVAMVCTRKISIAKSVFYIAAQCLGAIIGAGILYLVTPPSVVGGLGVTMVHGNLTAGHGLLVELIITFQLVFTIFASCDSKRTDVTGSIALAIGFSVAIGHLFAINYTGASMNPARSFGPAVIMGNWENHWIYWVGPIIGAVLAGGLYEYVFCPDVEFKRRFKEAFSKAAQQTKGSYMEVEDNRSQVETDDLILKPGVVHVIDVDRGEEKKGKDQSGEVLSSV
- PROTOCOL TEXT: Hummel-Dryer style binding assay with [3H]-Compound 4 and purified AQP4b
- CONDITIONS USED: tetrameric AQP4b, detergent buffer, 1 μM [3H]-Compound 4; read-out: relative affinity
pKd: −log10 of the molar value.
METRIC: pKd

Input line: // fetch purified AQP4b (Homo sapiens, UniProt P55087) pKd for O=C(Nc1cc(C(F)(F)F)cc(C(F)(F)F)c1)c1cc(C(F)(F)F)ccc1O
Output line: ~4.00
